From: paper PMC10376843

tested target: N-Myristoyltransferase (NMT)
assay summary: in vitro biochemical NMT inhibition assay (fluorescence detection of CoA)
condition notes: 0.1 nM to 10,000 nM; excitation 380 nm, emission 470 nm
pIC50: −log10 of the molar value.
Consider the following molecules; for each one, report its pIC50.

# lookup: pIC50 of CCCCCCCCCCCCCC(=O)N1CCOCC1 [Compound 3n, 1-morpholinotetradeca-1-one]
< 5.82

Now the molecule CCCCCCCCCCCCCC(=O)N(C)c1ccccc1 [Compound 3o, N-methyl-N-phenyltetradecanamide]
< 5.82

Now the molecule CCCCCCCCCCCCCC(=O)Nc1nc(C)cs1 [Compound 3v, N-(4-methylthiazol-2-yl) tetradecanamide]
< 5.82

Now the molecule CCCCCCCCCCCCCC(=O)Nc1ccc(OCC)cc1 [Compound 3l, N-(4-ethoxyphenyl) tetradecanamide]
< 5.82

Now the molecule CCCCCCCCCCCCCC(=O)Nc1cccc(C)c1 [Compound 3k, N-(m-tolyl) tetradecanamide]
5.89

Now the molecule CCCCCCCCCCCCCC(=O)N(CC)c1ccccc1 [Compound 3q, N-ethyl-N-phenyltetradecanamide]
< 5.82

Now the molecule CCCCCCCCCCCCCC(=O)O [Myristic acid]
5.38

Now the molecule CCCCCCCCCCCCCC(=O)Nc1ccc(O)cc1 [Compound 3t, N-(4-hydroxyphenyl) tetradecanamide]
6.00

Now the molecule CCCCCCCCCCCCCC(=O)Nc1ccccc1 [Compound 3p, N-phenyltetradecanamide]
< 5.82

###

Consider the following compounds; for each one, report its pIC50.
tested target: N-Myristoyltransferase (NMT)
assay summary: in vitro biochemical NMT inhibition assay (fluorescence detection of CoA)
condition notes: 0.1 nM to 10,000 nM; excitation 380 nm, emission 470 nm
Protocol: The potency of the myristic acid derivatives was determined via an in vitro NMT assay. Coenzyme A (CoA) was detected as a byproduct of an enzymatic reaction. Fluorescence was measured at an excitation wavelength of 380 nm and an emission wavelength of 470 nm. In this assay, the intensity of fluorescence was […], giving a signal (Figure 7). The NMT protein used in the study was from the supplier Ray Biotech. […]
Kindly note that pIC50 refers to -log10 of the concentration in mol/L and answer with the value alone.

API: value(readout=pIC50, system=N-Myristoyltransferase (NMT)) for record CCCCCCCCCCCCCC(=O)NC1CCCCC1 [Compound 3m, N-cyclohexyltetradecanamide]
6.06

Now the compound CCCCCCCCCCCCCC(=O)Nc1ccccn1 [Compound 3u, N-(pyridine-2-yl) tetradecanamide]
6.08

Now the compound CCCCCCCCCCCCCC(=O)Nc1ccc(F)cc1 [Compound 3r, N-(4-fluorophenyl) tetradecanamide]
5.83
